Entries annotated with measured TGI
test system: OVCAR-8; experiment: Growth inhibition of human OVCAR8 cells after 48 hrs by sulforhodamine B assay; type: functional; conditions: OVCAR-8, 48 h, read-out: pTGI (converted)

Worked cases, answers included:
[
  {
    "SMILES_RECORD": "Nc1cc(N)c2nc(-c3ccccc3)c(Sc3ccc(Cl)c(Cl)c3)nc2c1",
    "READOUT_NAME": "TGI",
    "RESULT": "> 100 µM"
  },
  {
    "SMILES_RECORD": "COc1ccc(Oc2nc3cc(N)cc(N)c3nc2-c2ccccc2)cc1",
    "READOUT_NAME": "TGI",
    "RESULT": "> 100 µM"
  }
]

Now, please, on to the next molecule.
Query block: I have this molecule here, COc1ccc(Sc2nc3cc(N)cc(N)c3nc2-c2ccccc2)cc1 , and I need its recorded TGI.
Result block: > 100 µM

---

tested on: EKVX; test: Growth inhibition of human EKVX cells after 48 hrs by sulforhodamine B assay; assay type: functional; settings: read-out: pTGI (converted)
READOUT_NAME: TGI (µM)
// note: answer is a bare numeric in µM

Worked cases, answers included:
[
  {
    "SMILES_RECORD": "COc1cc(CNc2nc3cc(N)cc(N)c3nc2-c2ccccc2)cc(OC)c1",
    "EXPERIMENTAL_TARGET": "EKVX",
    "READOUT_NAME": "TGI",
    "QUANTITATIVE_READOUT": 8.91
  },
  {
    "SMILES_RECORD": "Nc1cc(N)c2nc(-c3ccccc3)c(Oc3ccc(F)cc3)nc2c1",
    "EXPERIMENTAL_TARGET": "EKVX",
    "READOUT_NAME": "TGI",
    "QUANTITATIVE_READOUT": 33.9
  },
  {
    "SMILES_RECORD": "COc1cc(OC)cc(Oc2nc3cc(N)cc(N)c3nc2-c2ccccc2)c1",
    "EXPERIMENTAL_TARGET": "EKVX",
    "READOUT_NAME": "TGI",
    "QUANTITATIVE_READOUT": 19.5
  },
  {
    "SMILES_RECORD": "COc1cc(CNc2nc3cc(N)cc(N)c3nc2-c2ccccc2)cc(OC)c1OC",
    "EXPERIMENTAL_TARGET": "EKVX",
    "READOUT_NAME": "TGI",
    "QUANTITATIVE_READOUT": 8.32
  }
]

Now, please, on to the next molecule.
Query block: I have this molecule here, Nc1cc(N)c2nc(-c3ccccc3)c(NCc3ccc(Cl)c(Cl)c3)nc2c1 , and I need its recorded TGI.
Result block: 38.9

---

Entries annotated with measured GI50
test system: A549; test: Growth inhibition of human A549 cells after 48 hrs by sulforhodamine B assay; assay type: functional; settings: A549, 48 h
// note: answer is a bare numeric in µM

Worked cases, answers included:
[
  {
    "SMILES_RECORD": "COc1ccc(CNc2nc3cc(N)cc(N)c3nc2-c2ccccc2)cc1OC",
    "EXPERIMENTAL_TARGET": "A549",
    "VALUE_UNITS": "µM",
    "QUANTITATIVE_READOUT": 20.9
  },
  {
    "SMILES_RECORD": "Nc1cc(N)c2nc(-c3ccccc3)c(Oc3ccc(Cl)c(Cl)c3)nc2c1",
    "EXPERIMENTAL_TARGET": "A549",
    "VALUE_UNITS": "µM",
    "QUANTITATIVE_READOUT": 18.2
  },
  {
    "SMILES_RECORD": "Nc1cc(N)c2nc(-c3ccccc3)c(Oc3ccc(F)cc3)nc2c1",
    "EXPERIMENTAL_TARGET": "A549",
    "VALUE_UNITS": "µM",
    "QUANTITATIVE_READOUT": 24
  }
]

Now, please, on to the next compound.
Query block: I have this compound here, COc1cc(CNc2nc3cc(N)cc(N)c3nc2-c2ccccc2)cc(OC)c1 , and I need its recorded GI50.
Result block: 33.1

---

tested on: NCI-H522; experiment: Growth inhibition of human NCI-H522 cells after 48 hrs by sulforhodamine B assay; type: functional; details: NCI-H522, 48 h, read-out: pTGI (converted)
Entries annotated with measured TGI
// note: answer is a bare numeric in µM

[
  {
    "SMILES_RECORD": "Nc1cc(N)c2nc(-c3ccccc3)c(Sc3ccc(Cl)c(Cl)c3)nc2c1",
    "VALUE_UNITS": "µM",
    "TGI": 33.9
  }
]

Now, please, on to the next compound.
Query block: Enter reported TGI observed with NCI-H522 for COc1cc(CNc2nc3cc(N)cc(N)c3nc2-c2ccccc2)cc(OC)c1
Result block: 22.9

---

Entries annotated with measured CC50
system: UO-31; experiment: Growth inhibition of human UO31 cells after 48 hrs by sulforhodamine B assay; type: functional; conditions: UO-31, 48 h, read-out: pLC50 (the source's name) (converted)

[
  {
    "SMILES_RECORD": "COc1ccc(Sc2nc3cc(N)cc(N)c3nc2-c2ccccc2)cc1",
    "CC50": "> 100 µM"
  },
  {
    "SMILES_RECORD": "COc1ccc(CNc2nc3cc(N)cc(N)c3nc2-c2ccccc2)cc1",
    "CC50": "72.4 µM"
  }
]

Query block: I have this compound here, COc1ccc(CNc2nc3cc(N)cc(N)c3nc2-c2ccccc2)cc1OC , and I need its recorded CC50.
Result block: > 100 µM

Query block: I have this compound here, COc1cc(CNc2nc3cc(N)cc(N)c3nc2-c2ccccc2)cc(OC)c1OC , and I need its recorded CC50.
Result block: > 50.1 µM

Query block: I have this compound here, Nc1cc(N)c2nc(-c3ccccc3)c(Oc3ccc(Cl)c(Cl)c3)nc2c1 , and I need its recorded CC50.
Result block: > 100 µM

Query block: I have this compound here, COc1ccc(Oc2nc3cc(N)cc(N)c3nc2-c2ccccc2)cc1 , and I need its recorded CC50.
Result block: > 100 µM

Query block: I have this compound here, Nc1cc(N)c2nc(-c3ccccc3)c(Sc3ccc(F)cc3)nc2c1 , and I need its recorded CC50.
Result block: > 100 µM

Query block: I have this compound here, Nc1cc(N)c2nc(-c3ccccc3)c(NCc3ccc(Cl)c(Cl)c3)nc2c1 , and I need its recorded CC50.
Result block: > 100 µM

Query block: I have this compound here, Nc1cc(N)c2nc(-c3ccccc3)c(NCc3ccc(F)cc3)nc2c1 , and I need its recorded CC50.
Result block: > 100 µM

Query block: I have this compound here, Nc1cc(N)c2nc(-c3ccccc3)c(Sc3ccc(Cl)c(Cl)c3)nc2c1 , and I need its recorded CC50.
Result block: > 100 µM

---

system: SF-295; test: Growth inhibition of human SF295 cells after 48 hrs by sulforhodamine B assay; format: functional; conditions: SF-295, 48 h
Entries annotated with measured LC50 (50% net cell kill)

[
  {
    "SMILES_RECORD": "COc1ccc(Oc2nc3cc(N)cc(N)c3nc2-c2ccccc2)cc1",
    "EXPERIMENTAL_TARGET": "SF-295",
    "LC50 (50% net cell kill)": "> 100 µM"
  }
]

Query block: I have this compound here, COc1ccc(Sc2nc3cc(N)cc(N)c3nc2-c2ccccc2)cc1 , and I need its recorded LC50 (50% net cell kill).
Result block: > 100 µM

Query block: I have this compound here, Nc1cc(N)c2nc(-c3ccccc3)c(Sc3ccc(Cl)c(Cl)c3)nc2c1 , and I need its recorded LC50 (50% net cell kill).
Result block: > 100 µM

---

system: BT-549; assay: Growth inhibition of human BT549 cells after 48 hrs by sulforhodamine B assay; format: functional; conditions: BT-549, 48 h, read-out: pLC50 (the source's name) (converted)
READOUT_NAME: CC50

[
  {
    "SMILES_RECORD": "COc1ccc(CNc2nc3cc(N)cc(N)c3nc2-c2ccccc2)cc1",
    "EXPERIMENTAL_TARGET": "BT-549",
    "CC50": "> 100 µM"
  },
  {
    "SMILES_RECORD": "COc1ccc(Oc2nc3cc(N)cc(N)c3nc2-c2ccccc2)cc1",
    "EXPERIMENTAL_TARGET": "BT-549",
    "CC50": "> 100 µM"
  }
]

Now, please, on to the next compound.
Query block: I have this compound here, COc1cc(CNc2nc3cc(N)cc(N)c3nc2-c2ccccc2)cc(OC)c1 , and I need its recorded CC50.
Result block: > 100 µM
